# protocol summary: HT29 colon tumor cell growth inhibition, primary screen, imaging, high content imaging, 24 h, CellTiter-Glo (AID 770)
# assay context: HT29 cell number by imaging, measured here: ATP CellTiter-Glo viability, at 10 µM, stronger effect = higher value
Hit rate of the full screen: of about 3,300 compounds, fewer than 10 were called active. A selection follows.
measure name: growth inhibition
Your answer should be a number followed by the unit of measure.

As a guide, the following entries are already answered.
> print(dat)
                                   compound  measured.result
1              O=C(NCCN1CCCCC1)c1ccc(=O)oc1           -12.9%
2      CCc1cc(=O)oc2cc(C)c(CN3CCCC3)c(O)c12            0.04%
3  COc1ccc(OC)c(C2/C(=C(/O)c3ccccc3)C(=O)C(=O)N2Cc2ccco2)c1 (stereo not drawn)           -6.75%
4     Cc1ccc(CNc2oc(COc3ccccc3Cl)nc2C#N)cc1           -1.41%
5               CN1C(=O)c2ccc(N(C)C)cc2C1=O           -7.32%

Given item Cc1ccc(N2CN=c3s/c(=C\c4cccnc4)c(=O)n3C2)cc1 , the value recorded as its growth inhibition is 6.47%

Given item CN1CCN(/C=N/c2sc3c(c2C#N)CCCCC3)CC1 , the value recorded as its growth inhibition is 15.9%

Given item CC1(C)CC(=O)C2=C(C1)N(Cc1ccco1)C(=O)C2(NC(=O)c1cccnc1)C(F)(F)F (stereo not drawn) , the value recorded as its growth inhibition is -14.4%

Given item CC(C)CSc1nc(N2CCOCC2)c2c(c1C#N)CC(C)(C)SC2 , the value recorded as its growth inhibition is 13.9%

Given item COc1ccc(/C(O)=C2/C(=O)C(=O)N(c3ncccn3)C2c2ccc(OC)c(OC)c2)cc1 (stereo not drawn) , the value recorded as its growth inhibition is 10.6%

Given item N#C/C(C(=O)NCc1ccco1)=C1/SC(Cc2ccc(F)cc2)C(=O)N1c1ccccc1 (stereo not drawn) , the value recorded as its growth inhibition is -3.7%

Given item CCOC(=O)C(NC=O)(NC(C)(C)C)C(=O)OCC , the value recorded as its growth inhibition is -6.54%

Given item COC(=O)COn1c(SCC(=O)OC)nc2ccccc2c1=O , the value recorded as its growth inhibition is -6.12%
